Collected scaled log2 fold change values appear next to each entry.
B1: library; numbered along this chain (parent)
chain: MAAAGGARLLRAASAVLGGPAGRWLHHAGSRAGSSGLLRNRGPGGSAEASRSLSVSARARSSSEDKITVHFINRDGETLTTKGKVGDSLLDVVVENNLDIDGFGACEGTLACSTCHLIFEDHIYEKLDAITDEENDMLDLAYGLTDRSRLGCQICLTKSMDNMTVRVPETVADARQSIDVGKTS

variants of: B1; assay: scaled log2 fold change in cell abundance, elesclomol vs control (0 = silent mean, 1 = nonsense mean) (scaled log2 ratio); higher = higher viability under elesclomol (loss of FDX1 cuproptosis function); conditions: with ABC1 FDX1 KO; elesclomol 5 nM; glucose 10 mM; 14 days;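 also: variant abundance is its share of total variant reads in each endpoint sample, from next-generation sequencing of the integrated ORF PCR-amplified out of genomic DNA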
Number only, no unit.

Known results for variants:
R149A
0.375
S62F
0.075
N40P
-0.752
C112M
1.09

// lookup scaled log2 fold change for `A15D`
0.405
